- Tested on: Candida albicans ATCC 90028
Property label: MIC

Query string: Provide only the value of recorded MIC for CC[C@H](C)[C@H](NC(=O)[C@H](Cc1ccccc1)NC(=O)[C@@H](NC(=O)[C@H](CCC(N)=O)NC(=O)[C@H](Cc1ccc(O)cc1)NC(=O)[C@H](CCCN=C(N)N)NC(=O)[C@@H](NC(=O)[C@H](CC(C)C)NC(=O)[C@H](CCCCN)NC(=O)[C@H](CCC(N)=O)NC(=O)[C@H](CC(C)C)NC(=O)[C@H](CCC(=O)O)NC(=O)[C@H](CCCCN)NC(=O)[C@H](Cc1ccccc1)NC(=O)[C@H](CC(C)C)NC(=O)[C@H](CC(C)C)NC(=O)CN)[C@@H](C)CC)[C@@H](C)CC)C(=O)NCC(=O)N[C@@H](CCCCN)C(N)=O [GLLFKELQKLIRYQIFIGK]
Result string: ≥ 64 µM

###

- System: Streptococcus agalactiae
Property label: MIC (µM)
Answer with a number only, understood to be in µM.

Query string: Name the recorded MIC of CC(C)C[C@H](NC(=O)[C@H](C)N)C(=O)N[C@@H](Cc1ccc(O)cc1)C(=O)N[C@@H](CCCCN)C(=O)N[C@@H](CCCCN)C(=O)N[C@@H](Cc1ccccc1)C(=O)N[C@@H](CCCCN)C(=O)N[C@@H](CCCCN)C(=O)N[C@@H](CCCCN)C(=O)N[C@@H](CC(C)C)C(=O)N[C@@H](CC(C)C)C(=O)N[C@@H](CCCCN)C(=O)N[C@@H](CO)C(=O)N[C@@H](CC(C)C)C(=O)N[C@@H](CCCCN)C(=O)N[C@@H](CCCN=C(N)N)C(=O)N[C@@H](CC(C)C)C(=O)NCC(=O)O [ALYKKFKKKLLKSLKRLG] , assay system Streptococcus agalactiae.
Result string: 4.3

###

- Test system: Salmonella enterica serovar Typhimurium
- Protocol summary: ≥ marks a high value that may be exact or a test limit, other limits are often not marked, values filed in µg/mL are converted to µM
Property label: MIC

Some compounds with known MIC results, for comparison:
1. NCCCC[C@H](NC(=O)[C@H](Cc1ccccc1)NC(=O)[C@H](CCCN=C(N)N)NC(=O)[C@H](CCCCN)NC(=O)[C@H](CCCCN)NC(=O)[C@H](CCCN=C(N)N)NC(=O)[C@@H](N)CCCCN)C(=O)N[C@@H](Cc1c[nH]c2ccccc12)C(=O)N[C@@H](Cc1c[nH]c2ccccc12)C(=O)O ... 20.6 µM
2. CC[C@H](C)[C@H](N)C(=O)N[C@@H](CC(C)C)C(=O)N[C@@H](CCCN=C(N)N)C(=O)N[C@@H](Cc1c[nH]c2ccccc12)C(=O)N[C@@H](CCCCN)C(=O)N[C@@H](Cc1c[nH]c2ccccc12)C(=O)N[C@@H](CCCN=C(N)N)C(=O)N[C@@H](Cc1c[nH]c2ccccc12)C(=O)N[C@@H](Cc1c[nH]c2ccccc12)C(=O)N[C@@H](CCCN=C(N)N)C(=O)N[C@@H](Cc1c[nH]c2ccccc12)C(=O)N[C@@H](CCCN=C(N)N)C(=O)N[C@@H](CCCN=C(N)N)C(=O)O ... 2.9 µM
3. CC[C@H](C)[C@H](NC(=O)[C@H](CCCN=C(N)N)NC(=O)[C@H](C)NC(=O)[C@H](CC(C)C)NC(=O)CN)C(=O)N[C@H](C(=O)N[C@H](C(=O)N[C@H](C(=O)N[C@@H](CCCN=C(N)N)C(=O)N[C@H](C(=O)N[C@@H](C)C(=O)N[C@@H](CCCN=C(N)N)C(N)=O)C(C)C)[C@@H](C)CC)C(C)C)C(C)C ... ≥ 47.6 µM
4. CC[C@H](C)[C@H](NC(=O)[C@@H](N)CCCCN)C(=O)N[C@@H](Cc1c[nH]c2ccccc12)C(=O)N[C@@H](Cc1c[nH]c2ccccc12)C(=O)N[C@@H](Cc1c[nH]c2ccccc12)C(=O)N[C@@H](Cc1c[nH]c2ccccc12)C(=O)N[C@@H](CCCN=C(N)N)C(=O)N[C@@H](CCCCN)C(=O)N[C@@H](CCCN=C(N)N)C(=O)O ... 10.6 µM
5. CC[C@H](C)[C@H](NC(=O)[C@@H](NC(=O)[C@H](C)NC(=O)[C@@H](NC(=O)[C@H](C)NC(=O)[C@@H](N)CCCN=C(N)N)C(C)C)C(C)C)C(=O)N[C@H](C(=O)N[C@@H](CCCN=C(N)N)C(=O)N[C@@H](CC(C)C)C(=O)N[C@@H](CCCN=C(N)N)C(=O)N[C@@H](CCCN=C(N)N)C(=O)N[C@H](C(N)=O)C(C)C)[C@@H](C)CC ... 7.74 µM

Please find the next compound below.
Query string: Provide only the value of recorded MIC for CC[C@H](C)[C@H](NC(=O)[C@H](CCCN=C(N)N)NC(=O)[C@H](Cc1c[nH]c2ccccc12)NC(=O)[C@H](CS)NC(=O)[C@@H](N)C(C)C)C(=O)N[C@@H](CCCN=C(N)N)C(=O)N[C@H](C(=O)N[C@@H](C)C(=O)N[C@H](C(=O)N[C@H](C(=O)N[C@@H](CCCN=C(N)N)C(=O)N[C@@H](C)C(=O)O)[C@@H](C)CC)C(C)C)C(C)C
Result string: ≥ 44.4 µM
